- Test description: molar heat capacity at constant pressure
- Conditions: 349.15 K; 101.33 kPa; Liquid

{"columns": ["Chemical structure", "Unit abbrev", "molar heat capacity at constant pressure"],
 "data": [
  ["CCCCCCCCl", "J/K/mol", 264.3],
  ["CCCCCCBr", "J/K/mol", 236.55],
  ["CCCCBr", "J/K/mol", 174.51],
  ["CCCCCCCCCBr", "J/K/mol", 331.79],
  ["CCCCCCl", "J/K/mol", 202.54]
]}

---

- Test description: molar heat capacity at constant pressure
- Conditions: 339.15 K; 101.33 kPa; Liquid
So basically: molar heat capacity at constant pressure at 300 J/K/mol or higher? That is MET. Lower than 300 J/K/mol? That is NOT MET.

{"columns": ["Molecule", "Category"],
 "data": [
  ["CCCCCCCCCCBr [1-bromodecane]", "MET"],
  ["CCCCCCBr [1-bromohexane]", "NOT MET"],
  ["CCCCCCCCCBr [1-bromononane]", "MET"],
  ["CCCCCCl [1-chloropentane]", "NOT MET"]
]}
